This listing pairs sequences with measured PBM binding z-score.
Test system: LXRa:RXRa (NR concentration 270 nM, RXRa partner concentration 90 nM)
Test: PBM binding z-score (relative to random genomic background probes); higher = stronger binding; sequences stand for … in GC…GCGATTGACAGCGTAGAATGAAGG
experimentalEndpoint: PBM binding z-score

CGAACGAGGTCACCAGGACAGTGAAGAGGTTGGA | 5.61
AGAATGAGGTCACCAAAGATCAGGGAAACGCTTG | 6.5
CGAACGAGGTCATCCAGGACAGTGAATACATTGA | 6.03
CGTCCAAGGTTAAGGTCAGTGAAAGAGACTCGAA | 3.28
AATACAGGGTAACTAGGCCAGAGTAGGTACGAAT | 0.106
CGTCCAAGGTCAAAGGTCAATGAAGAGATGACGG | 7.3
CAAACTAGGTCAAGGTCTAAGTCGGTTTGTGCCA | 2.44
GGAACGAGGTCAAGTTGATAGCAGAGTTTGATGG | 6.21
